# targetOfAssay: [^3H]PI-2620 binding in post-mortem Alzheimer’s disease (AD) brain tissue (Homo sapiens)
# Sequence (P10636 623-695 limits assumed): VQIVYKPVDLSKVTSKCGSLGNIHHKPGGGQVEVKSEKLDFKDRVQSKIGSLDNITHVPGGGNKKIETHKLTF
observationType: pKi
Would you please state pKi, meaning minus log10 of the concentration in mol/L, as a bare number?

Enquiry: Print [^3H]PI-2620 binding in post-mortem Alzheimer’s disease (AD) brain tissue (Homo sapiens) pKi for O=C1NCc2nc(-c3cnc(N4CC[C@@H](F)C4)cn3)ccc21 [LMD-022] .
Return: 5.56

====

# assayExplanation: Metabolic stability in human liver microsomes
# Assay type: in vitro ADME
# appliedConditions: human liver microsomes, 15 min
Measured % disappearance at 15 minutes relative to time zero values are reported for all entries that follow.
API: value field is a number in %; no unit string.

In the examples that follow, each entry is paired with its recorded % disappearance at 15 minutes relative to time zero.
FC1CCN(c2cnc(-n3cc4sc(-c5cccnc5)cc4n3)cn2)CC1 ... 64.3
F[C@@H]1CCN(c2ccc(-n3cc4sc(-c5cccnc5)cc4n3)cn2)C1 ... 79.2
F[C@@H]1CCN(c2cnc(-c3csc4ccc(-c5cccnc5)nc34)cn2)C1 ... 88.3
F[C@@H]1CCN(c2ccc(-n3ncc4sc(-c5cncs5)cc43)cn2)C1 ... 97.9
O=C1NCc2nc(-c3cnc(N4CC[C@@H](F)C4)cn3)ccc21 ... 17.8

Enquiry: Name the recorded % disappearance at 15 minutes relative to time zero of the molecule listed here: "F[C@@H]1CCN(c2cnc(-c3ccc4scc(-c5cccnc5)c4n3)cn2)C1"
Return: 65.6

Enquiry: Name the recorded % disappearance at 15 minutes relative to time zero of the molecule listed here: "F[C@@H]1CCN(c2ccc(-c3ccc4sc(-c5cncs5)cc4n3)cn2)C1"
Return: 88.1

Enquiry: Name the recorded % disappearance at 15 minutes relative to time zero of the molecule listed here: "F[C@@H]1CCN(c2cc(-n3cc4sc(-c5cccnc5)cc4n3)ncn2)C1"
Return: 82.8

====

# targetOfAssay: MDR1 (Homo sapiens, UniProt P08183)
# Construct: host or cells: MDCK cells
# Sequence (P08183 whole entry): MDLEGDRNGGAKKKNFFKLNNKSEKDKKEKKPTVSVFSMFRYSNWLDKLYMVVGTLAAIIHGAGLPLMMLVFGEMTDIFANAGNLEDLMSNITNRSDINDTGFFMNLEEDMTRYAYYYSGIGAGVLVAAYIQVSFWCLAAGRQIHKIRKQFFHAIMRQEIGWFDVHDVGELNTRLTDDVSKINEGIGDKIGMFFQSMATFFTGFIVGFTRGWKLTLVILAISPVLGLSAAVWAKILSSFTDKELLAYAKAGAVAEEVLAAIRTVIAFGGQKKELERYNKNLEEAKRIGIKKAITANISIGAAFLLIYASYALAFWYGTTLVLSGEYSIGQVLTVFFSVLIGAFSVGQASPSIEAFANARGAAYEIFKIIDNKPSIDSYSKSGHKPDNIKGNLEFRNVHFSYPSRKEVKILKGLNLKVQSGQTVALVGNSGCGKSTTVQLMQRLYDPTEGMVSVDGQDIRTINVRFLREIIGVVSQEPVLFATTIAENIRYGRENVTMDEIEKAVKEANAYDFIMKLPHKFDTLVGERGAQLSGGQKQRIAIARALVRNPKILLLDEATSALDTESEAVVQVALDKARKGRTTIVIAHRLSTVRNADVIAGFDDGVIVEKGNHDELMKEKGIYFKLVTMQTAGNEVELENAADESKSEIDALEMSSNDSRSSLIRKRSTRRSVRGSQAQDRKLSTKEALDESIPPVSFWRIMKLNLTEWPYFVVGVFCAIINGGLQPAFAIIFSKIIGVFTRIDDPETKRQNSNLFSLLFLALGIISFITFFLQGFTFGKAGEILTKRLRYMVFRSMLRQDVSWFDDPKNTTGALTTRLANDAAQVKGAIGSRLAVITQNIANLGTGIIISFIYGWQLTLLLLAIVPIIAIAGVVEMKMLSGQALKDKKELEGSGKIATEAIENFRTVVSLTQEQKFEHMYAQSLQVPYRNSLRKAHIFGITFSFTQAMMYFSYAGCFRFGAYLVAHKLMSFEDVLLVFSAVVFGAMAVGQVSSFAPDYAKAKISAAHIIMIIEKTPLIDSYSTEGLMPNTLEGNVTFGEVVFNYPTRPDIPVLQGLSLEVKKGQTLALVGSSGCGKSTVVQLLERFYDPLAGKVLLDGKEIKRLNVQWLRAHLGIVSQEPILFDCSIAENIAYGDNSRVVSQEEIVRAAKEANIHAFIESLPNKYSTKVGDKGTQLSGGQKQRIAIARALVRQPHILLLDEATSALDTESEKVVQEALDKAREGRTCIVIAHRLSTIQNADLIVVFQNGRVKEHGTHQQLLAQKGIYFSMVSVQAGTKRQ
# assayExplanation: Bidirectional transport in MDR1-transfected MDCK cell monolayers
# Format: in vitro ADME
# appliedConditions: dog; MDR1-MDCK; read-out: Efflux Ratio (B→A/A→B)
observationType: efflux ratio at 2 μM

Enquiry: Name the recorded efflux ratio at 2 μM of the compound listed here: O=C1NCc2nc(-c3cnc(N4CC[C@@H](F)C4)cn3)ccc21 [LMD-022]
Return: 0.93

====

# assayExplanation: Metabolic stability in human liver microsomes
# Format: in vitro ADME
# appliedConditions: human, pooled human liver microsomes, pH 7.4, human liver microsomes (h-MR)
observationType: half-life at 1 μM
In your response, put the unit directly after the numeric value.

In the examples that follow, each entry is paired with its recorded half-life at 1 μM.
O=C1NCc2nc(-c3cnc(N4CC[C@@H](F)C4)cn3)ccc21 [LMD-022] ... 75 min
F[C@@H]1CCN(c2ccc(-c3ccc4sc(-c5cncs5)cc4n3)cn2)C1 [LMD-006] ... 6.81 min
FC1CCN(c2cnc(-n3cc4sc(-c5cccnc5)cc4n3)cn2)CC1 [LMD-051] ... 17 min
F[C@@H]1CCN(c2cc(-n3cc4sc(-c5cccnc5)cc4n3)ncn2)C1 [LMD-052] ... 7.6 min
F[C@@H]1CCN(c2cnc(-c3ccc4scc(-c5cccnc5)c4n3)cn2)C1 [LMD-045] ... 10.5 min
F[C@@H]1CCN(c2cnc(-c3csc4ccc(-c5cccnc5)nc34)cn2)C1 [LMD-044] ... 6.37 min

Please find the next molecule below.
Enquiry: Name the recorded half-life at 1 μM of the molecule listed here: F[C@@H]1CCN(c2ccc(-n3cc4sc(-c5cccnc5)cc4n3)cn2)C1 [LMD-032]
Return: 7.05 min
